protocol text: Induction of chondrogenesis in human MSC assessed as maximum activity at 20.58 nM incubated for 6 days by rhodamine B and Nile red staining based imaging analysis relative to control
Type: functional
run parameters: BMMSC, 144 h, time 6 day
Exercise: for every item that follows, state its recorded Emax at 0.02058 µM.

>>> result_value("Fc1cccc(-c2cncc3[nH]c(-c4n[nH]c5ccc(-c6cn[nH]c6)nc45)nc23)c1")
"51.8%"

Would you be so kind as to report Emax at 0.02058 µM for each listed record?
1. CCCC(=O)Nc1cncc(-c2ccc3[nH]nc(-c4nc5c(-c6ccsc6)cncc5[nH]4)c3n2)c1
2. Oc1cncc(-c2ccc3[nH]nc(-c4nc5c(-c6cccc(F)c6)ccnc5[nH]4)c3n2)c1

OUTPUT:
1. 58.4%
2. 59.3%

====

protocol text: Effect on Wnt signaling pathway in human SW480 cells harbouring TCF/LEF luciferase reporter gene and SP5-Luc reporter gene incubated for 36 to 48 hrs by luminescence assay
Type: cell-based
Assign EC50 to each entry below.
One number for each entry, in nM.

>>> result_value("O=C(Nc1c[nH]nc1C(=O)Nc1ccc(N2CCCC2)nc1)c1cncc(OC2CCNCC2)c1")
2.5
>>> result_value("Cc1n[nH]c2ccc(-c3cc(OC[C@H](N)Cc4ccccc4)cnn3)cc12")
1150
>>> result_value("Cn1ncc(-c2ccc3cnc(NC(=O)[C@H]4CC[C@H](CO)CC4)cc3c2)c1CN1CCCCC1")
594
>>> result_value("CC(C)n1cc(C(=O)Nc2cc3cc(-c4cncn4C(C)C)ccc3cn2)cn1")
115
>>> result_value("O=C(Nc1c[nH]nc1C(=O)Nc1cccnc1)c1cccnc1")
20.5
>>> result_value("c1csc(-c2cncc3[nH]c(-c4n[nH]c5ncc(-c6cncc(CNCC7CCCC7)c6)cc45)nc23)c1")
98

Below is a list of molecules. For each, state its recorded EC50.
1. O=C(Nc1ccc(OC(CO)CO)nc1)c1n[nH]c2ccc(-c3cncc(CN4CCCCC4)c3)cc12
2. Fc1cccc(-c2cncc3[nH]c(-c4n[nH]c5ccc(-c6cncc(CN7CCC(F)(F)C7)c6)cc45)nc23)c1
3. CS(=O)(=O)NCc1cc(F)cc(-c2cncc3[nH]c(-c4n[nH]c5ncc(-c6cncc(CN7CCCCC7)c6)cc45)cc23)c1

OUTPUT:
500
26.4
1850

Batch request: EC50 per item, same order as input.
1. Cc1[nH]nc(C(=O)Nc2ccc(CN3CCCC3)cc2)c1/C=C/c1cccnc1
2. COc1cncc(C#Cc2c[nH]nc2C(=O)Nc2ccc(OC3CCN(C)CC3)nc2)c1
3. CC(C)(C)C(=O)Nc1cncc(-c2ccc3[nH]nc(-c4nc5c(N6CCCCC6)cncc5[nH]4)c3c2)c1
4. O=C(Nc1c[nH]nc1C(=O)Nc1ccc(N2CCC(F)(F)C2)nc1)c1cncc(OC2CCNCC2)c1

OUTPUT:
1: 2150; 2: 3570; 3: 41; 4: 2220

====

protocol text: Effect on Wnt signaling pathway in human SW480 cells harbouring TCF/LEF luciferase reporter gene and SP5-Luc reporter gene incubated for 36 to 48 hrs by luminescence assay
Format: cell-based
# note: boundary value 600 nM maps to 0 (no); EC50 below it maps to 1 (yes)

Use the examples below as a reference point.
>>> answer_label("Fc1cccc(-c2ccnc3[nH]c(-c4n[nH]c5ncc(-c6cn[nH]c6)cc45)nc23)c1")
"1 (yes)"
>>> answer_label("CN1CCC(Oc2ccc(NC(=O)c3n[nH]cc3/C=C/c3cccnc3)cn2)CC1")
"0 (no)"
>>> answer_label("CN(C)CCNc1cc(F)cc(-c2cccc3[nH]c(-c4n[nH]c5cnc(-c6cncc(N)c6)cc45)cc23)c1")
"1 (yes)"
>>> answer_label("Cc1cc2[nH]nc(C(=O)Nc3ccc(CN4CCCC4)cc3)c2cc1-c1cccnc1")
"0 (no)"
>>> answer_label("CCC(=O)Nc1cncc(-c2cnc3[nH]nc(-c4nc5c(-c6cccs6)cncc5[nH]4)c3c2)c1")
"1 (yes)"

INPUT: Criterion: EC50 strictly below 600 nM. Is it met by `CCNCc1cncc(-c2ccc3[nH]nc(-c4nc5c(-c6ccccn6)nccc5[nH]4)c3c2)c1` ?
OUTPUT: 0 (no)

INPUT: Dear colleague, could you confirm whether EC50 of `Cc1cncc(NC(=O)c2n[nH]c3ccc(-c4cncc(CN5CCCCC5)c4)cc23)c1` falls below 600 nM? Thanks.
OUTPUT: 1 (yes)

INPUT: Answer whether the compound `CS(=O)(=O)NCc1cc(F)cc(-c2cncc3[nH]c(-c4n[nH]c5ccc(-c6cncc(NC(=O)C7CC7)c6)nc45)cc23)c1` has EC50 strictly less than 600 nM
OUTPUT: 0 (no)

INPUT: Is 600 nM strictly greater than the compound's reported EC50? compound: `CC(C)(C)C(=O)Nc1cncc(-c2cnc3[nH]nc(-c4cc5c(-c6ccncc6)cncc5[nH]4)c3c2)c1`
OUTPUT: 0 (no)

INPUT: Lab note: confirm whether the reported EC50 for this compound is below 600 nM, equality not counting. compound: `Fc1cccc(-c2cncc3[nH]c(-c4n[nH]c5ncc(-c6cccnc6)cc45)cc23)c1`
OUTPUT: 1 (yes)

INPUT: Answer whether the compound `Fc1cccc(-c2cncc3[nH]c(-c4n[nH]c5ncc(-c6cncc(CN7CCCCC7)c6)cc45)cc23)c1` has EC50 strictly less than 600 nM
OUTPUT: 0 (no)

INPUT: Take the compound `CCCC(=O)Nc1cncc(-c2ccc3[nH]nc(-c4nc5c(-c6ccncc6)cncc5[nH]4)c3n2)c1` and say whether its EC50 is less than 600 nM.
OUTPUT: 0 (no)

INPUT: # TODO verify EC50 < 600 nM strictly for this compound: `O=C(Nc1cc2cc(-c3cnn4c3CCNC4)ccc2cn1)c1ccc(OC(F)F)cc1`
OUTPUT: 1 (yes)

INPUT: EC50 strictly < 600 nM for this compound? `CC(C)Nc1cncc(-c2cnc3[nH]nc(-c4cc5c(-c6ccccc6F)ccnc5[nH]4)c3c2)c1`
OUTPUT: 0 (no)

INPUT: Would you kindly verify if EC50 of `Nc1cncc(-c2cnc3[nH]nc(-c4cc5c(-c6ccncc6)ccnc5[nH]4)c3c2)c1` is strictly less than 600 nM?
OUTPUT: 0 (no)

INPUT: State whether 600 nM exceeds EC50 recorded for `CCCCC(=O)Nc1cncc(-c2cnc3[nH]nc(-c4cc5cnccc5[nH]4)c3c2)c1` .
OUTPUT: 0 (no)

INPUT: Hello, is EC50 of the following compound strictly smaller than 600 nM? `c1cncc(-c2ccnc3[nH]c(-c4n[nH]c5cnc(-c6cncnc6)cc45)cc23)c1`
OUTPUT: 0 (no)

====

tested on: Dual specificity tyrosine-phosphorylation-regulated kinase 1A (Homo sapiens, UniProt Q13627)
protocol text: Inhibition of recombinant DYRK1A (unknown origin) using Ser/Thr 18 peptide as substrate incubated for 1 hr in presence of ATP by FRET assay
pEC50: −log10 of the molar value.
pEC50 of 8 or higher: T. Under 8: F.

>>> answer_label("O=C(Nc1cnccc1NC(=O)C1CC1)c1n[nH]c2ccc(-c3cncc(CN4CCCCC4)c3)cc12")
"F"
>>> answer_label("CC(C)Nc1cncc(-c2cnc3[nH]nc(-c4cc5c(-c6ccccc6F)ccnc5[nH]4)c3c2)c1")
"F"
>>> answer_label("Nc1cncc(-c2cc3c(-c4cc5c(-c6ccncc6)cncc5[nH]4)n[nH]c3cn2)c1")
"T"
>>> answer_label("CC(C)(C)CC(=O)Nc1cncc(-c2cc3c(-c4cc5cnccc5[nH]4)n[nH]c3cn2)c1")
"T"
>>> answer_label("CC(C)(C)CC(=O)Nc1cncc(-c2ccc3[nH]nc(-c4cc5c(-c6ccoc6)ccnc5[nH]4)c3c2)c1")
"F"

INPUT: Hi, just wondering whether `Cc1n[nH]c2ccc(-c3cncc(OC[C@@H]4Cc5ccccc5CN4)n3)cc12` shows pEC50 of 8 or higher.
OUTPUT: F

INPUT: Is reported pEC50 greater than or equal to 8 here: `CS(=O)(=O)NCc1cc(F)cc(-c2nccc3[nH]c(-c4n[nH]c5ccc(-c6cncc(NC(=O)Cc7ccccc7)c6)nc45)cc23)c1`
OUTPUT: F

INPUT: Does `c1cncc(-c2ccc3[nH]nc(-c4cc5c(-c6cccnc6)cncc5[nH]4)c3c2)c1` have a reported pEC50 of at least 8?
OUTPUT: T

INPUT: Kindly determine if pEC50 recorded for `NC1CN(c2cncc(-c3ccc4[nH]nc(-c5nc6ccncc6[nH]5)c4c3)n2)C1` is above or exactly 8.
OUTPUT: T

====

tested on: Dual specificity protein kinase CLK3 (Homo sapiens, UniProt P49761)
Sequence (P49761 whole entry): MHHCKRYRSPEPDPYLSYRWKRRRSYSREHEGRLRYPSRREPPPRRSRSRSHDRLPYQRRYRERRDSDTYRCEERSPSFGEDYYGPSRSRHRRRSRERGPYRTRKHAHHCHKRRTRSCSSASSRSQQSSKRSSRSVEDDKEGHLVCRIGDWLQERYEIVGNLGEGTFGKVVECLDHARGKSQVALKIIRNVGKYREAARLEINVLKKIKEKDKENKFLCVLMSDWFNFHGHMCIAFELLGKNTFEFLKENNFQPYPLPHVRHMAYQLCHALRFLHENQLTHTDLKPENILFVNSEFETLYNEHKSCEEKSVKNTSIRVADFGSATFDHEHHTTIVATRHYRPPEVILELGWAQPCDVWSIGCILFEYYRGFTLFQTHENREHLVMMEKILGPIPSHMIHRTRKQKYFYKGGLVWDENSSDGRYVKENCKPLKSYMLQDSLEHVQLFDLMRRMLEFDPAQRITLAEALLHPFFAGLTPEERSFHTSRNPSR
protocol text: Inhibition of recombinant CLK3 (unknown origin) using Ser/Thr 18 peptide as substrate incubated for 1 hr in presence of ATP by FRET assay
pEC50: −log10 of the molar value.
Assignment: determine reported pEC50 for the given compounds.

Past entries and their recorded results:
>>> result_value("Fc1ccc(-c2cccc3[nH]c(-c4n[nH]c5ncc(-c6cncc(CN7CCCCC7)c6)cc45)cc23)cc1")
"< 5.00"
>>> result_value("Nc1cncc(-c2cnc3[nH]nc(-c4cc5c(-c6ccncc6)ccnc5[nH]4)c3c2)c1")
"< 5.00"

Please turn your attention to the following entry.
Just so you know, measured pEC50 for `CN1CCN(c2ccnc3[nH]c(-c4n[nH]c5ccc(-c6cn[nH]c6)nc45)cc23)CC1` came out at < 5.00
